measured-target: T1, Soluble E2 (sE2), amino acids 384 to 661 of HCV genotype 1a strain H77 (Hepatitis C virus genotype 1a, H77, UniProt P27958)
T1 construct: source: High Five insect cells, recombinant baculovirus, secreted, purified (Ni-nitrilotriacetic acid chromatography)
T1 sequence (P27958 384-661): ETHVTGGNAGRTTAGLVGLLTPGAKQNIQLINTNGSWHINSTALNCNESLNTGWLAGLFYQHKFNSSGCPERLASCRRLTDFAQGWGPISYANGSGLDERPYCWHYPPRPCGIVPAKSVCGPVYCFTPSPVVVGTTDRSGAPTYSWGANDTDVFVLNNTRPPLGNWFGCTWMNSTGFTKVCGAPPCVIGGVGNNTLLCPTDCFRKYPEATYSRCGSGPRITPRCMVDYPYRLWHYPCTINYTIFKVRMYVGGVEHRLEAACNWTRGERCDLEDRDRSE
assay-name: SPR; Biacore 3000, sE2 immobilised on CM5 by amine coupling; MAbs or Fabs injected; HBS pH 7.2, 25°C, 20 μl/min; 1:1 Langmuir fit
experimental-setup: both partners purified
readout-kind: koff (s⁻¹)
Quick reminder: number only, in s⁻¹, skip the unit.

For orientation, consider the following solved cases.
[
  {
    "binder": "Fab fragment of the C2 antibody (Fab, V domains shown, source: papain digestion of purified IgG; Fc removed on protein G, gel filtration) VH: EVQLQQPGAELVRPGGSVKLSCKASGYSFTTYWMNWVKQRPGQGLEWIGMIQPSDSETRLNQKFKDKATLTLDRSSSTVYMQLSSPTSDDSAVYYCARTGRGDAWLTYWGQGTSVTVSS VL: NIVLTQSPVSLAVSLGQRATISCRASKSVSTSGYSYMHWYQQKPGQPPRLLLYLGSNLESGVPARFSGSGSGTDFTLNIHPVEEEDAATYYCQHIRELTRSFGGGTKLEIK",
    "koff [s⁻¹]": 0.00463
  },
  {
    "binder": "MAb AP33 (broadly neutralizing mouse monoclonal antibody) (antibody, V domains shown) VH: EVQLQESGPSLVKPSQTLSLTCSVTGDSITSGYWNWIRKFPGNKLEYMGYISYSGSTYYNLSLRSRISITRDTSKNQYYLQLNSVTTEDTATYYCALITTTTYAMDYWGQGTSVTVSS VL: NIVLTQSPVSLAVSLGQRATISCRASESVDGYGNSFLHWFQQKPGQPPKLLIYLASNLNSGVPARFSGSGSRTDFTLTIDPVEADDAATYYCQQNNVDPWTFGGGTKLEIK",
    "koff [s⁻¹]": "6.4e-05"
  },
  {
    "binder": "Fab fragment of AP33 (Fab, V domains shown, source: papain digestion of purified IgG; Fc removed on protein G, gel filtration) VH: EVQLQESGPSLVKPSQTLSLTCSVTGDSITSGYWNWIRKFPGNKLEYMGYISYSGSTYYNLSLRSRISITRDTSKNQYYLQLNSVTTEDTATYYCALITTTTYAMDYWGQGTSVTVSS VL: NIVLTQSPVSLAVSLGQRATISCRASESVDGYGNSFLHWFQQKPGQPPKLLIYLASNLNSGVPARFSGSGSRTDFTLTIDPVEADDAATYYCQQNNVDPWTFGGGTKLEIK",
    "koff [s⁻¹]": 0.000147
  }
]

[in] Please report the recorded koff for MAb C2 (mouse monoclonal antibody against C-epitope I) (antibody, V domains shown, source: also used as hybridoma supernatant) VH: EVQLQQPGAELVRPGGSVKLSCKASGYSFTTYWMNWVKQRPGQGLEWIGMIQPSDSETRLNQKFKDKATLTLDRSSSTVYMQLSSPTSDDSAVYYCARTGRGDAWLTYWGQGTSVTVSS VL: NIVLTQSPVSLAVSLGQRATISCRASKSVSTSGYSYMHWYQQKPGQPPRLLLYLGSNLESGVPARFSGSGSGTDFTLNIHPVEEEDAATYYCQHIRELTRSFGGGTKLEIK .
[out] 0.000848
